These entries and their values trace back to ChEMBL document CHEMBL5303573.

- Applied conditions: bacteroides intestinalis, 12 h, 2 µM;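 note: parent drug quantified by LC–MS before and after incubation with the bacterium, comparing the two levels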
- Description: The drug is tested on Bacteroides intestinalis strain: DSM17393 for biotransformation. The drug concentrations were measured before and after a 12-h incubation by liquid-chromatography-coupled mass spectrometry (LC–MS)
Non-standard residues stand in square brackets, D forms with d. Residues, ends and D or L forms follow the SMILES beside them. pGlu = O=C1CC[C@@H](C(=O)O)N1; Thz = O=C(O)[C@@H]1CSCN1
Reported metric: Bacterial Biotransformation

Solved entries (count: 5):
Compound	Reported metric	Result
CC(CN1c2ccccc2Sc2ccccc21)N(C)C (configuration not stated) [PROMETHAZINE]	Bacterial Biotransformation	Compound NOT metabolized
Cc1nc(Nc2ncc(C(=O)Nc3c(C)cccc3Cl)s2)cc(N2CCN(CCO)CC2)n1.O [DASATINIB]	Bacterial Biotransformation	Compound metabolized
CN1CCC(OC(c2ccccc2)c2ccccc2)CC1	Bacterial Biotransformation	Compound NOT metabolized
C[N+]12CCC(CC1)C(OC(=O)C(O)(c1ccccc1)c1ccccc1)C2.[Br-] (configuration not stated) [CLIDINIUM BROMIDE]	Bacterial Biotransformation	Compound NOT metabolized
CCCCC(=O)N(Cc1ccc(-c2ccccc2-c2nnn[nH]2)cc1)[C@H](C(=O)O)C(C)C	Bacterial Biotransformation	Compound metabolized

IN: Endpoint output: Bacterial Biotransformation of O=C1CC[C@@H](C(=O)N2CSC[C@H]2C(=O)O)N1 [PIDOTIMOD] ([pGlu]-[Thz]-OH) . Value?
OUT: Compound NOT metabolized

IN: What do you get for CN(C/C=C/C#CC(C)(C)C)Cc1cccc2ccccc12 [TERBINAFINE] ?
OUT: Compound NOT metabolized

IN: What do you get for COc1ccc2[nH]c([S+]([O-])Cc3ncc(C)c(OC)c3C)nc2c1 (configuration not stated) [OMEPRAZOLE] ?
OUT: Compound metabolized

IN: What do you get for CN1CCC[C@@H]1CCO[C@](C)(c1ccccc1)c1ccc(Cl)cc1.O=C(O)/C=C/C(=O)O [CLEMASTINE FUMARATE] ?
OUT: Compound NOT metabolized

IN: What do you get for CCCc1nn(C)c2c(=O)[nH]c(-c3cc(S(=O)(=O)N4CCN(C)CC4)ccc3OCC)nc12.O=C(O)CC(O)(CC(=O)O)C(=O)O [SILDENAFIL CITRATE] ?
OUT: Compound NOT metabolized
